B1: GFP-FAN1, full-length FAN1 (FAN1^FL) [human] / MLH1 (endogenous, human) [human (endogenous in iPSCs, lymphoblastoid cells, U2OS, HEK293T, MSNs, HeLa)] (parent complex)
chain 1: MMSEGKPPDKKRPRRSLSISKNKKKASNSIISCFNNAPPAKLACPVCSKMVPRYDLNRHLDEMCANNDFVQVDPGQVGLINSNVSMVDLTSVTLEDVTPKKSPPPKTNLTPGQSDSAKREVKQKISPYFKSNDVVCKNQDELRNRSVKVICLGSLASKLSRKYVKAKKSIDKDEEFAGSSPQSSKSTVVKSLIDNSSEIEDEDQILENSSQKENVFKCDSLKEECIPEHMVRGSKIMEAESQKATRECEKSALTPGFSDNAIMLFSPDFTLRNTLKSTSEDSLVKQECIKEVVEKREACHCEEVKMTVASEAKIQLSDSEAKSHSSADDASAWSNIQEAPLQDDSCLNNDIPHSIPLEQGSSCNGPGQTTGHPYYLRSFLVVLKTVLENEDDMLLFDEQEKGIVTKFYQLSATGQKLYVRLFQRKLSWIKMTKLEYEEIALDLTPVIEELTNAGFLQTESELQELSEVLELLSAPELKSLAKTFHLVNPNGQKQQLVDAFLKLAKQRSVCTWGKNKPGIGAVILKRAKALAGQSVRICKGPRAVFSRILLLFSLTDSMEDEDAACGGQGQLSTVLLVNLGRMEFPSYTINRKTHIFQDRDDLIRYAAATHMLSDISSAMANGNWEEAKELAQCAKRDWNRLKNHPSLRCHEDLPLFLRCFTVGWIYTRILSRFVEILQRLHMYEEAVRELESLLSQRIYCPDSRGRWWDRLALNLHQHLKRLEPTIKCITEGLADPEVRTGHRLSLYQRAVRLRESPSCKKFKHLFQQLPEMAVQDVKHVTITGRLCPQRGMCKSVFVMEAGEAADPTTVLCSVEELALAHYRRSGFDQGIHGEGSTFSTLYGLLLWDIIFMDGIPDVFRNACQAFPLDLCTDSFFTSRRPALEARLQLIHDAPEESLRAWVAATWHEQEGRVASLVSWDRFTSLQQAQDLVSCLGGPVLSGVCRHLAADFRHCRGGLPDLVVWNSQSRHFKLVEVKGPNDRLSHKQMIWLAELQKLGAEVEVCHVVAVGAKSQSLS
chain 2: MSFVAGVIRRLDETVVNRIAAGEVIQRPANAIKEMIENCLDAKSTSIQVIVKEGGLKLIQIQDNGTGIRKEDLDIVCERFTTSKLQSFEDLASISTYGFRGEALASISHVAHVTITTKTADGKCAYRASYSDGKLKAPPKPCAGNQGTQITVEDLFYNIATRRKALKNPSEEYGKILEVVGRYSVHNAGISFSVKKQGETVADVRTLPNASTVDNIRSIFGNAVSRELIEIGCEDKTLAFKMNGYISNANYSVKKCIFLLFINHRLVESTSLRKAIETVYAAYLPKNTHPFLYLSLEISPQNVDVNVHPTKHEVHFLHEESILERVQQHIESKLLGSNSSRMYFTQTLLPGLAGPSGEMVKSTTSLTSSSTSGSSDKVYAHQMVRTDSREQKLDAFLQPLSKPLSSQPQAIVTEDKTDISSGRARQQDEEMLELPAPAEVAAKNQSLEGDTTKGTSEMSEKRGPTSSNPRKRHREDSDVEMVEDDSRKEMTAACTPRRRIINLTSVLSLQEEINEQGHEVLREMLHNHSFVGCVNPQWALAQHQTKLYLLNTTKLSEELFYQILIYDFANFGVLRLSEPAPLFDLAMLALDSPESGWTEEDGPKEGLAEYIVEFLKKKAEMLADYFSLEIDEEGNLIGLPLLIDNYVPPLEGLPIFILRLATEVNWDEEKECFESLSKECAMFYSIRKQYISEESTLSGQQSEVPGSIPNSWKWTVEHIVYKALRSHILPPKHFTEDGNILQLANLPDLYKVFERC

variants of: B1; test: GFP-Trap pull-down, quantified immunoblot; U2OS cell extracts; n = 5 biological replicates; parent: 100; read off a plot
measured_parameter: percent of parent

    mutant_label  value_reported
0  chain 1 S126A             ~10
1  chain 1 Y128A              ~1
2  chain 1 Q123A            ~110

# percent of parent lookup, item chain 1 F129A
~5
